Data provenance: PubChem BioAssay AID248

- Test system: L1210 leukemia ip in BDF1 mice, survival T/C
- Assay summary: NCI In Vivo Anticancer Drug Screen. Data for tumor model L1210 Leukemia (intraperitoneal) in B6D2F1 (BDF1) mice
- Stated conditions: endpoint: mean survival time; dose: 200.0 mg/kg/injection; schedule: Q01DX001 (ip); vehicle: saline; higher = longer survival
- Procedure: The antitumor activity of compounds was measured in mice bearing transplantable tumors. Survival or tumor size were measured and the results are expressed as the measurement made in the treated group (T) divided by the measurement made in the vehicle treated control group (C). The tumor model used in this assay is L1210 Leukemia (intraperitoneal) in B6D2F1 (BDF1) mice
Toxic doses and inconclusive results are not listed.

| Compound | Measurement target | T/C |
| --- | --- | --- |
| NC(=O)C1=C(N)c2ccccc2C1c1ccccc1 (configuration not stated) | L1210 leukemia ip in BDF1 mice, survival T/C | 97 % of control |
| Cc1c(O)c(CN2CCOCC2)cc(CN2CCOCC2)c1O | L1210 leukemia ip in BDF1 mice, survival T/C | 90 % of control |
| O=CN/N=C/c1c[nH]c(=O)[nH]c1=O | L1210 leukemia ip in BDF1 mice, survival T/C | 106 % of control |
| COC(=O)c1c2c(c3c(c1C(=O)OC)CCC3)CCC2 | L1210 leukemia ip in BDF1 mice, survival T/C | 95 % of control |
| CC(C)=Cc1ccno1 | L1210 leukemia ip in BDF1 mice, survival T/C | 100 % of control |
| CC1COCC(C)N1CC(=O)NCCCN1CCN(CCCNC(=O)CN2C(C)COCC2C)CC1 (configuration not stated) | L1210 leukemia ip in BDF1 mice, survival T/C | 113 % of control |
| Nc1ccc(Cc2ccc(N)c(Br)c2)cc1Br | L1210 leukemia ip in BDF1 mice, survival T/C | 98 % of control |
| CN(C)C(=S)N(C(=S)N(C)C)c1ccc(Cl)cc1 | L1210 leukemia ip in BDF1 mice, survival T/C | 92 % of control |
| COS(=O)(=O)CCC[n+]1ccccc1 | L1210 leukemia ip in BDF1 mice, survival T/C | 96 % of control |
| O=C1NC(=O)C(c2cccc(Cl)c2)N1 (configuration not stated) | L1210 leukemia ip in BDF1 mice, survival T/C | 98 % of control |
| C/C(CCC(=O)O)=N/Nc1nnc(N/N=C(/C)CCC(=O)O)c2ccccc12 | L1210 leukemia ip in BDF1 mice, survival T/C | 102 % of control |
| CCCCC(=O)N/N=C/c1c(O)ccc2ccccc12 | L1210 leukemia ip in BDF1 mice, survival T/C | 94 % of control |
| CC(CO)(CO)N=Cc1ccccc1 | L1210 leukemia ip in BDF1 mice, survival T/C | 100 % of control |
| CCCCCCCCCCCCOP(=O)(OCCCCCCCCCCCC)c1ccccc1 | L1210 leukemia ip in BDF1 mice, survival T/C | 94 % of control |
| CC(=O)[C@H]1C[C@@H](CC(=O)O)C1(C)C | L1210 leukemia ip in BDF1 mice, survival T/C | 103 % of control |
| CC1(C)OC(N)=C(C(N)=O)C1c1ccc(Cl)cc1 (configuration not stated) | L1210 leukemia ip in BDF1 mice, survival T/C | 95 % of control |
| N#Cc1c(N)ncn1C1OC(CO)C(O)C1O (configuration not stated) | L1210 leukemia ip in BDF1 mice, survival T/C | 104 % of control |
| C=CCN1C(=O)NC(=O)C1c1ccsc1 (configuration not stated) | L1210 leukemia ip in BDF1 mice, survival T/C | 93 % of control |
| O=C1c2cc([N+](=O)[O-])ccc2NC1(c1c[nH]c2ccccc12)c1c[nH]c2ccc(Br)cc12 (configuration not stated) | L1210 leukemia ip in BDF1 mice, survival T/C | 96 % of control |
| CC(=O)OC1CC2(Cl)C(Cl)=C(Cl)C1(Cl)C2(Cl)Cl (configuration not stated) | L1210 leukemia ip in BDF1 mice, survival T/C | 98 % of control |
| CCOC(=O)C(CCC(c1ccc(OC)cc1)c1ccc(OC)cc1)C(=O)OCC | L1210 leukemia ip in BDF1 mice, survival T/C | 93 % of control |
| C=C1CCC2CCCN2C1=O (configuration not stated) | L1210 leukemia ip in BDF1 mice, survival T/C | 87 % of control |
| CCCCn1cnc2c(SC)ncnc21 | L1210 leukemia ip in BDF1 mice, survival T/C | 103 % of control |
| COc1ccc(-c2oc3cc(OC)ccc3c(=O)c2O)cc1 | L1210 leukemia ip in BDF1 mice, survival T/C | 104 % of control |
| O=C1CCC2OC(=O)C3CCCC1C23 (configuration not stated) | L1210 leukemia ip in BDF1 mice, survival T/C | 97 % of control |
| CC(=O)NC(CS)C(=O)O (configuration not stated) | L1210 leukemia ip in BDF1 mice, survival T/C | 95 % of control |
| CC(=O)OC(C)COCc1ccccc1 (configuration not stated) | L1210 leukemia ip in BDF1 mice, survival T/C | 89 % of control |
| Nc1nc(N)c(-c2ccc(Cl)c(Cl)c2)c(C=O)n1 | L1210 leukemia ip in BDF1 mice, survival T/C | 114 % of control |
| O=C(N/N=C/c1cccc([N+](=O)[O-])c1)c1cccc2ccccc12 | L1210 leukemia ip in BDF1 mice, survival T/C | 92 % of control |
| CC(C)(C)CC(C)(C)N(CSc1ccc(Br)cc1)CSc1ccc(Br)cc1 | L1210 leukemia ip in BDF1 mice, survival T/C | 90 % of control |
| COc1ccc(NC2=CC(=O)C(=O)c3ccccc32)nn1 | L1210 leukemia ip in BDF1 mice, survival T/C | 89 % of control |
| CCCCC(=O)c1cc2ccccc2c2ccccc12 | L1210 leukemia ip in BDF1 mice, survival T/C | 88 % of control |
| CC(C)(c1ccc(OCC2CO2)cc1)c1ccc(OCC2CO2)cc1 (configuration not stated) | L1210 leukemia ip in BDF1 mice, survival T/C | 109 % of control |
| C=CCNC(=O)c1cncc(C(=O)O)c1 | L1210 leukemia ip in BDF1 mice, survival T/C | 104 % of control |
| C[N+]1=C(C(=O)c2ccc(O)cc2)c2ccc(O)cc2CC1 | L1210 leukemia ip in BDF1 mice, survival T/C | 119 % of control |
| COc1ccc([I+]c2ccc(OC)cc2)cc1 | L1210 leukemia ip in BDF1 mice, survival T/C | 109 % of control |
| O=Cc1cc(Br)ccc1[N+](=O)[O-] | L1210 leukemia ip in BDF1 mice, survival T/C | 103 % of control |
